tested on: HCT-15 colon; assay: NCI-60 one-dose screen, 48 h (100 = growth as untreated, 0 = no growth, -100 = all killed); conditions: 10 µM unless noted
This is part of a sample that, as a whole, favours compounds with a hit. Of some 83,000 tested, about 20% had one in any assay.
Response key: criterion met means growth >= 50%; criterion not met means growth < 50%.

>>> assigned_class("O=C(Nc1cccc(-c2ccc(Cl)c(C(F)(F)F)c2)c1)C1CCN(Cc2cccc3cccnc23)CC1")
"criterion not met"
>>> assigned_class("O=C(Nc1ccccc1O)c1ccc(CNC(=O)c2sccc2Nc2ccnc(C(F)(F)F)c2)cc1")
"criterion not met"
>>> assigned_class("CCC(=C(c1ccc(OCCN2CCCCC2)cc1)c1ccc(OCCN2CCCCC2)cc1)c1ccc(Cl)cc1")
"criterion not met"
>>> assigned_class("C=C(C)[C@@H]1CC[C@]2(C(=O)N3CCOCC3)CC[C@]3(C)[C@H](CC[C@@H]4[C@@]5(C)C/C(=C/c6ccncc6)C(=O)C(C)(C)[C@@H]5CC[C@]43C)[C@@H]12")
"criterion not met"
>>> assigned_class("CCSC(SCC)c1ccc(Cl)cc1")
"criterion met"
>>> assigned_class("CCCOC(=O)Nc1nc2ccc(SCC(C)C)cc2s1")
"criterion not met"
>>> assigned_class("O=C1C(Cl)=C(Nc2ccc(S(=O)(=O)N3CCOCC3)cc2)C(=O)c2ccccc21")
"criterion not met"
>>> assigned_class("O=C(O)CCCN1C(=O)/C(=C/c2cn(-c3ccccc3)nc2-c2ccc([N+](=O)[O-])cc2)SC1=S")
"criterion not met"
>>> assigned_class("Cn1ccc(=O)c(C(=O)Nc2nsc3ccc([N+](=O)[O-])cc23)c1")
"criterion met"
>>> assigned_class("O=C(N/N=C/c1ccc(Cl)cc1)c1[nH]c2ccc(Cl)cc2c1-c1ccccc1")
"criterion not met"
>>> assigned_class("Nc1nc2ccc(-c3nc4ccc5[nH]ncc5c4c4c3CCCC4)cc2s1")
"criterion met"
>>> assigned_class("CSc1oc(C)nc1[P+](c1ccccc1)(c1ccccc1)c1ccccc1")
"criterion met"
